- Assayed target: T1, ActRIIB-Fc homodimer (UniProt Q13705 19-137)
- T1 construct: extracellular domain; also called ActRIIB homodimer
- T1 sequence (looked up): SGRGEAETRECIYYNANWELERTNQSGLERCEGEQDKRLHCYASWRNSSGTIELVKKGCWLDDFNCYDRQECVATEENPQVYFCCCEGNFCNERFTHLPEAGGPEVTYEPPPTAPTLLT
- Procedure summary: Biacore SPR
Measure: koff (s⁻¹)

Reference set, count: 4
Binder: BMP9 (ligand, UniProt Q9UK05 320-429, looked up, also called GDF2) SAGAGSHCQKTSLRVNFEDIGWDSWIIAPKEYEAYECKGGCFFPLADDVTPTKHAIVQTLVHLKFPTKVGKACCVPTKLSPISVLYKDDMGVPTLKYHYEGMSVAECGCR
Test value: 0.0013
//
Binder: activin B (ligand, UniProt P09529 293-407, looked up) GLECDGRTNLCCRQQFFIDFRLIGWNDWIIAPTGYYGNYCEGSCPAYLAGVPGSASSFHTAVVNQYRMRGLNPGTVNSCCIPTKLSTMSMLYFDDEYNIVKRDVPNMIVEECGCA
Test value: 0.0001
//
Binder: GDF11 (ligand, UniProt O95390 299-407, looked up, also called BMP11) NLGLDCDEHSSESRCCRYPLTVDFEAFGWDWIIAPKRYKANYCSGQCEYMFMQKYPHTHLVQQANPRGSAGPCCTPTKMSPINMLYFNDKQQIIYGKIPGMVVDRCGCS
Test value: 0.00014
//
Binder: BMP10 (ligand, UniProt O95393 317-424, looked up) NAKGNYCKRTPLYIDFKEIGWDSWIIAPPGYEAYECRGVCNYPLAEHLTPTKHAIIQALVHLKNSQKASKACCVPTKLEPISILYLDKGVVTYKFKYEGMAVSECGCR
Test value: 0.00038

a: GDF3 (ligand, UniProt Q9NR23 251-364, looked up) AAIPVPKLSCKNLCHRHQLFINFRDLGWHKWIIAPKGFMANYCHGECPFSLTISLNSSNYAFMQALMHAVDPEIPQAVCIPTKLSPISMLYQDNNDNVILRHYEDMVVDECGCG
b: activin A (ligand, UniProt P08476 311-426, looked up) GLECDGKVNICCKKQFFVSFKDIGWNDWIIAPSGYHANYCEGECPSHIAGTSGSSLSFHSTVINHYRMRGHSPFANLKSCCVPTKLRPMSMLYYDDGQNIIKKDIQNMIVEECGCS
query: Hi there! Just curious which has the higher koff between a and b . When you have decided, please share the label of that item.
result: a
(a: 0.0018 s⁻¹, b: 0.00023 s⁻¹)
